target-or-test-system: HPK1 (MAP4K1) (Homo sapiens)
Sequence (Q92918 whole entry): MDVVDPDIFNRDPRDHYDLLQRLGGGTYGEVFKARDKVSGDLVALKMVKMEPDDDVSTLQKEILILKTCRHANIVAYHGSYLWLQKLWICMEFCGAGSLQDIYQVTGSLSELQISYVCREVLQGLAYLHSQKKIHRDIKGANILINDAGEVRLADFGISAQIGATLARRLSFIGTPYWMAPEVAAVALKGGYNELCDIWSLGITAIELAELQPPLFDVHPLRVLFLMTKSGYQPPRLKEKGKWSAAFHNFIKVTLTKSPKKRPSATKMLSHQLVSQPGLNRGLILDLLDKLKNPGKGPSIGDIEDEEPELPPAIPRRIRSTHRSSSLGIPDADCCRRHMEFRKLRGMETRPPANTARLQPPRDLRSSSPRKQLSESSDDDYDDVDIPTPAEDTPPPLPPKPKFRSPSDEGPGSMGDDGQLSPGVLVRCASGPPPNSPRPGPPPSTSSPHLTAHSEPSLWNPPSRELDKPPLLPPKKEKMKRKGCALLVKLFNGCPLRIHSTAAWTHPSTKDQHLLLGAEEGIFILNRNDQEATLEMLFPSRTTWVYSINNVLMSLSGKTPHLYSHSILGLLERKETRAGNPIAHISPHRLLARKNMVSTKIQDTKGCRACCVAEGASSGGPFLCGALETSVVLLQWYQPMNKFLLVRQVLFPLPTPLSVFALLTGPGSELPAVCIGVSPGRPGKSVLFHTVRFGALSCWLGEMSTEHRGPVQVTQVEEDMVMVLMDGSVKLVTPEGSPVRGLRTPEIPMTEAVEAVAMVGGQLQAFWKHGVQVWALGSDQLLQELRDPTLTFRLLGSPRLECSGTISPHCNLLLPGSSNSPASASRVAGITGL
protocol-details: FRET Assay for HPK1 (MAP4K1): one step binding assay, displacement of labeled tracer
condition-details: 10 μM compound; FRET ratio 665/620, percent of control
observed-property: inhibition at 10 µM (%)
Number only, in %; omit the unit.

Ask: Looking for the measured inhibition at 10 µM of C/C(Nc1ccn(C[C@H](C)O)n1)=C1/C(=O)Nc2cnc(-c3cnccc3C)cc21 , can you help?
Reply: 88

Ask: What does the data say about its inhibition at 10 µM? Entry: C/C(Nc1cnn(C[C@@H](C)O)c1)=C1/C(=O)Nc2cnc(-c3cnccc3C)cc21
Reply: 80.9

Ask: State the recorded inhibition at 10 µM for this entry: C/C(Nc1cnn(C(C)C)c1)=C1/C(=O)Nc2cnc(-c3cnccc3C)cc21
Reply: 76

Ask: Which inhibition at 10 µM is listed for C/C(Nc1ncn(C)n1)=C1/C(=O)Nc2cnc(-c3cnccc3C)cc21 ?
Reply: 81.5

Ask: # lookup: inhibition at 10 µM of COc1cccc(F)c1-c1cc2c(cc1C)NC(=O)/C2=C(/C)Nc1cnn(C)c1
Reply: 80

Ask: Return reported inhibition at 10 µM; argument: C/C(Nc1ccn(CCN2CCOCC2)n1)=C1/C(=O)Nc2cnc(-c3cnccc3C)cc21
Reply: 81.8

Ask: Item Cc1ccncc1-c1cc2c(cn1)NC(=O)/C2=C(\Nc1cnn(C)c1)C(C)C has what recorded inhibition at 10 µM?
Reply: 84.8

----------
What pIC50 was measured for each of the following?
target-or-test-system: HPK1 (MAP4K1) (Homo sapiens)
protocol-details: FRET Assay for HPK1 (MAP4K1): one step binding assay, displacement of labeled tracer
condition-details: dose response curve, nonlinear regression
pIC50: −log10 of the molar value.

Ask: Which pIC50 value is on record for C/C(Nc1cnn(C)c1)=C1/C(=O)Nc2cnc(-c3cncc(N)c3C)cc21 ?
Reply: > 7.30

Ask: Requested field: pIC50. Item: C/C(NCCN1CCOCC1)=C1/C(=O)Nc2cnc(-c3cnccc3C)cc21
Reply: < 6.30

Ask: Quick one: pIC50 for C/C(Nc1cc(C)n(C(C)(C)C#N)n1)=C1/C(=O)Nc2cnc(-c3cnccc3C)cc21 ?
Reply: > 7.30

Ask: Record request: pIC50 value, item CCOc1cccc(F)c1-c1cc2c(cn1)NC(=O)/C2=C(/C)Nc1cnn(CC)c1
Reply: > 7.30

Ask: Using the record for C/C(Nc1cc2n(n1)CCOC2)=C1/C(=O)Nc2cnc(-c3c(C)cccc3F)cc21 , report its pIC50.
Reply: > 7.30

Ask: Given the entry COc1cccc(F)c1-c1cc2c(cn1)NC(=O)/C2=C(/C)Nc1ccc(N2CCNCC2)cc1 , report its measured pIC50.
Reply: > 7.30

Ask: Fill blank: measured pIC50 of the molecule C/C(Nc1cc(C)nn1C)=C1/C(=O)Nc2cnc(-c3cnccc3C)cc21 is ____.
Reply: 6.30 to 7.00

Ask: Quick one: pIC50 for COc1ccncc1-c1cc2c(cn1)NC(=O)/C2=C(/C)Nc1ccn(C(C)(C)C#N)n1 ?
Reply: > 7.30

Ask: For the molecule COc1cccc(F)c1-c1cc2c(cn1)NC(=O)/C2=C(/C)Nc1cnn(C2COC2)c1 , what pIC50 is on record?
Reply: > 7.30
